Please go through the items and note down their inhibition at 1 µM.
# systemUnderTest: human ANO6 (Homo sapiens)
# Construct: expressed in transfected cells
# Sequence (Q4KMQ2 1-931 isoform Q4KMQ2-2): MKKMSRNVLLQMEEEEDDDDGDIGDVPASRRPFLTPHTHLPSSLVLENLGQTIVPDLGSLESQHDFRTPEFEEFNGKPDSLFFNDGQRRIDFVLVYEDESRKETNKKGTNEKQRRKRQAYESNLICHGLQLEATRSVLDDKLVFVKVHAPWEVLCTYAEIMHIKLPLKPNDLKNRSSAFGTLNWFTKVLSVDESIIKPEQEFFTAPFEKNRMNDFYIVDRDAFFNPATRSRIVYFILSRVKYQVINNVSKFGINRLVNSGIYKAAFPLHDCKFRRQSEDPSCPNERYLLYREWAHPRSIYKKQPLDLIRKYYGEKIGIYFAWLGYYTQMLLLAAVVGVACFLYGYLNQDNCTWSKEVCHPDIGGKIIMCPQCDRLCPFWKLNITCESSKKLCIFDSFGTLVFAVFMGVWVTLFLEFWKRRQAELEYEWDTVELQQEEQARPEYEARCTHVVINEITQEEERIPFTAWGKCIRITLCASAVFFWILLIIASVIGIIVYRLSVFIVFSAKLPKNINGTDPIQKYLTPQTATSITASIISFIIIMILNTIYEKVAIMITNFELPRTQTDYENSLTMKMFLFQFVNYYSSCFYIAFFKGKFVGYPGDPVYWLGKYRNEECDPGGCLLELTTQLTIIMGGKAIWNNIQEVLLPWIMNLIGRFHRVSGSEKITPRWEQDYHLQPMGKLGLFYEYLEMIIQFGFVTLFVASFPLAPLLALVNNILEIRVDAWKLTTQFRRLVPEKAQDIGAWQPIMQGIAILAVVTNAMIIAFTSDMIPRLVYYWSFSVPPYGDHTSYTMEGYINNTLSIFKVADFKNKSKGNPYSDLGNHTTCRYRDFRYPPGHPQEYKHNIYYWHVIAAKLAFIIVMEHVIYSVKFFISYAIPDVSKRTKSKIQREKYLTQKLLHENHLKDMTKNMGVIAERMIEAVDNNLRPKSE
# assayName: LACT C2 assay (phosphatidylserine scramblase function assay)
# Type: cell-based
# recordedConditions: test compound 1 μM, FRT cells expressing human ANO6, 10 μM ionomycin, read-out: Inhibition Level 1 μM

Past entries and their recorded results:
// query # inhibition at 1 µM lookup, item Cc1ccc(NC(=O)c2cccc(Nc3ncc(-c4cccc(F)c4)cn3)c2)cc1C [Compound A92]
// result ≥ 60%

// query Request: O=C(NCc1ccc(F)cc1)c1cccc(Nc2ccc(-c3ccccc3)nn2)c1 [Compound A24]
// result 30 to 60%

// query Request: O=C(NCc1ccc2c(c1)OCO2)c1cccc(Nc2ccc(-c3ccccc3)nn2)c1 [Compound A64]
// result < 30%

// query Request: O=C(Nc1cccc(F)c1)c1cccc(Nc2ccc(-c3ccncc3)cc2)c1 [Compound 162]
// result ≥ 60%

// query Request: O=C(NC1CCCCC1)c1cccc(Nc2ccc(-c3ccccc3)nn2)c1 [Compound A62]
// result 30 to 60%

// query Request: O=C(Nc1cccc(F)c1)c1cccc(Nc2ncc(-c3ccccc3)cn2)c1 [Compound 116]
// result ≥ 60%

Report inhibition at 1 µM for each item below.
1. O=C(NCc1ccccc1Br)c1cccc(Nc2ncc(-c3cccc(F)c3)cn2)c1 [Compound 216]
2. Cc1ccc(CCNC(=O)c2cccc(Nc3ncc(-c4cccc(F)c4)cn3)c2)o1 [Compound 151]

// result
1. < 30%
2. < 30%

The origin of these recorded values is patent US20230080054A1.
